assay.notes: MTT cell viability assay
protocol.conditions: human, cell viability (% of control), 100 µM
measurement.kind: viability at 48 h, 100 µM (%)
Answers are plain numbers, in %.

[in] Requested read-out: viability at 48 h, 100 µM. Entry: CC(=O)OC1CC2(C)C(CCC(C)C23Cc2c(O)cc(C=O)c(C=O)c2O3)C(C)(C)C1OC(C)=O (stereo not shown) [Acetoxystachybotrydial acetate]
[out] 12

* * *

experimental.target: human recombinant CK2 holoenzyme (Homo sapiens, UniProt P68400)
Sequence (P68400 whole entry): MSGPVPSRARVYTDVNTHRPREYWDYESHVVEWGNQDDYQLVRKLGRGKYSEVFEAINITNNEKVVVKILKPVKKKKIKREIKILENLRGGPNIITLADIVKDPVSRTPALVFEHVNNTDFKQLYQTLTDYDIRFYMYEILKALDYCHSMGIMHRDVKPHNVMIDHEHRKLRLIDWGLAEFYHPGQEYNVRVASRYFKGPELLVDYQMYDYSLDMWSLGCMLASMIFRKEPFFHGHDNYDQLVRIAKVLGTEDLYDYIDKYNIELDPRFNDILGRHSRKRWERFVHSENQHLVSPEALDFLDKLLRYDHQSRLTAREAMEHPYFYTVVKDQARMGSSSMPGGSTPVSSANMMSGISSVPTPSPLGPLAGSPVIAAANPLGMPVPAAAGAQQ
Sequence (P67870 whole entry partner): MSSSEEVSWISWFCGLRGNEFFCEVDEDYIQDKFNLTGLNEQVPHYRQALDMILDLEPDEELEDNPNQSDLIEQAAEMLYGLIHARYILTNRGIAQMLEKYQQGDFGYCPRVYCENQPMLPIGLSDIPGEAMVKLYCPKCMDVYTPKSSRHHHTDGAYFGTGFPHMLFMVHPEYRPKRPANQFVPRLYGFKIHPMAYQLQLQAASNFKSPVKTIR
assay.notes: CE-based CK2 activity assay (substrate peptide RRRDDDSDDD)
Type: biochemical
measurement.kind: pKi
Give bare numbers, as −log10 of the molar value.

[in] Item CC(=O)OC1CC2(C)C(CCC(C)C23Cc2c(O)cc(C=O)c(C=O)c2O3)C(C)(C)C1OC(C)=O (stereo not shown) [Acetoxystachybotrydial acetate] has what recorded pKi?
[out] 5.85
